In this section we review reported Onset time values for a set of molecules.
Test system: rats
Assay: Pharmacological characteristics at equivalent doses (2×ED50) in rats
Conditions: 2×ED50, tail vein, time of LORR
Write it as a number; the unit min goes unstated.

Challenge: What does the record list as Onset time for C=C=CC(C)OC(=O)c1c(F)ncn1[C@H](C)c1ccccc1 (some centres unmarked) ?
Response given: 0.40

Challenge: Repeat for the following molecule: CCC(CC)OC(=O)c1cncn1[C@H](C)c1ccccc1
Response given: 0.49

Challenge: Next: C/C=C/C1(OC(=O)c2cncn2[C@H](C)c2ccccc2)COC1
Response given: 0.13

Challenge: Param item: C[C@H](c1ccccc1)n1cncc1C(=O)OCC1(C)CSC1
Response given: 0.13

Challenge: Now the molecule C=C=CC(C)OC(=O)c1cncn1[C@H](C)c1ccccc1 (some centres unmarked)
Response given: 0.24
